Taken from the supplement of paper PMC9694430.

System: LOC_OS01G48390-cb002;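 also: purified Escherichia coli-expressed rice kinase domain construct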
Assay procedure: thermal shift delta Tm vs DMSO control; higher = stronger stabilization (binding)
Assay context: 12.5 µM; protein concentration 2 µM
Where a name gives a salt, the structure may show the parent alone.
// reported thermal shift delta Tm for each item listed
Property: thermal shift delta Tm (°C)

>>> print(df.to_string())
                                    compound                property  quantitative_readout
 0  CN(C)CCOc1ccc(-c2nc(-c3ccncc3)c(-c3ccc4c(c3)CC/C4=N\O)[nH]2)cc1  thermal shift delta Tm                  1.16
 1  Cc1ncc(-c2ccnc(Nc3ccc(S(C)(=O)=O)cc3)n2)n1C(C)C  thermal shift delta Tm                  0.66
 2  COc1ccc(CNC(=O)Nc2ncc([N+](=O)[O-])s2)cc1  thermal shift delta Tm                  0.63
 3  Cc1cc(C(=O)Nc2nc3cccc(Cl)c3n2[C@@H]2CCCCN(C(=O)/C=C/CN(C)C)C2)ccn1 [Nazartinib (EGF816, NVS-816)]  thermal shift delta Tm                  0.78
 4  Nc1nccc(Oc2ccc3c(C(=O)Nc4cccc(C(F)(F)F)c4)cccc3c2)n1  thermal shift delta Tm                  1.13
 5  C[C@@H]1COCCN1c1cc(=O)n2c(n1)N(Cc1cncc(Cl)c1)[C@H](C(F)(F)F)CC2  thermal shift delta Tm                  0.95
 6  O=C(Nc1cccc(Cl)c1)Nc1ncc(CCNc2ncnc3ccsc23)s1 [SNS-314 Mesylate]  thermal shift delta Tm                  1.79
 7  O=C(NOC[C@H](O)CO)c1ccc(F)c(F)c1Nc1ccc(I)cc1F  thermal shift delta Tm                  0.89
 8  C#Cc1cccc(Nc2ncnc3cc(OC)c(OCCCCCCC(=O)NO)cc23)c1  thermal shift delta Tm                  1.12
 9  COc1cc2c(c(OC)c1OC)-c1c(cc3c(c1OC)OCO3)CC(C)C(C)C2 (stereo unspecified) [Schisandrin B (Sch B)]  thermal shift delta Tm                  0.18
10  CNC(=O)c1ccc(C)c(-n2c(C)cc(OCc3ccc(F)cc3F)c(Br)c2=O)c1  thermal shift delta Tm                  0.65
11  CCCCNc1ncc(-c2ccc(CN3CCOCC3)cn2)c(NC2CCC(O)CC2)n1 (stereo unspecified)  thermal shift delta Tm                  1.38
12  C=CC(=O)Nc1ccc2ncnc(Nc3ccc(OCc4cccc(F)c4)c(Cl)c3)c2c1  thermal shift delta Tm                  3.63
13  CC(C)[C@H](CO)Nc1nc(Nc2cccc(Cl)c2)c2ncn(C(C)C)c2n1 [Purvalanol A]  thermal shift delta Tm                  2.56
14  COc1nccnc1NS(=O)(=O)c1ccc(NC(=O)/C=C/c2ccc([N+](=O)[O-])s2)cc1 [Necrosulfonamide]  thermal shift delta Tm                  0.84
15  COc1ccc2[nH]cc(/C=C3\C(=O)Nc4ccc(NC(=O)CCN5CCCCC5)cc43)c2c1  thermal shift delta Tm                  0.82
16  FC(F)(F)c1ccc(Nc2nc3ccc(Oc4ccnc(-c5ncc(C(F)(F)F)[nH]5)c4)cc3[nH]2)cc1 [Raf265 derivative]  thermal shift delta Tm                  4.75
17  CO[C@@H](C(=O)N1Cc2[nH]nc(NC(=O)c3ccc(N4CCN(C)CC4)cc3)c2C1)c1ccccc1  thermal shift delta Tm                  3.55
18  COc1cc2nccc(Oc3ccc(NC(=O)C4(C(=O)Nc5ccc(F)cc5)CC4)cc3)c2cc1OC  thermal shift delta Tm                  6.38
19  Cc1nc2c(-c3cnc(N)nc3)nc(N3CCOCC3)nc2n1C(C)C  thermal shift delta Tm                  0.44
20  Cc1cc(Nc2ncc(Cl)c(Nc3ccccc3S(=O)(=O)C(C)C)n2)c(OC(C)C)cc1C1CCNCC1 [Ceritinib (LDK378)]  thermal shift delta Tm                  0.85
21  CCN(CC)CCNC(=O)c1c(C)[nH]c(/C=C2\C(=O)Nc3ccc(F)cc32)c1C [Sunitinib]  thermal shift delta Tm                  1.72
22  Cc1ccc(NC(=O)Nc2cc(C(F)(F)F)ccc2F)cc1Nc1ccc2c(c1)NC(=O)/C2=C\c1ccc[nH]1  thermal shift delta Tm                   3.2
23  CNc1nc(-c2ccc3c(N)n[nH]c3c2)cc(N2C[C@@H](C(=O)NC3CCCCC3)CC[C@H]2C)n1  thermal shift delta Tm                  0.39
24     O=C1NC(=O)/C(=C/c2cccc(C(F)(F)F)c2)S1  thermal shift delta Tm                  0.08
25  N#CC(=C(/N)Sc1ccccc1N)/C(C#N)=C(\N)Sc1ccccc1N  thermal shift delta Tm                  0.24
26  N#Cc1c(NC(=O)c2cccc3ccccc23)sc2c1CCCC2 [JNK Inhibitor IX]  thermal shift delta Tm                 -0.06
27  N#CC[C@H](C1CCCC1)n1cc(-c2ncnc3[nH]ccc23)cn1  thermal shift delta Tm                   0.4
28  COc1cc2/c(=N/c3ccc(Br)cc3F)nc[nH]c2cc1OCC1CCN(C)CC1 [Vandetanib (ZD6474)]  thermal shift delta Tm                  1.67
29  CN1CCN(c2ccc(OC(F)(F)F)c(Nc3ncc4c(n3)-c3c(c(C(N)=O)nn3CCO)CC4)c2)CC1  thermal shift delta Tm                 -0.15
30  C[C@H](CN(C)C)Oc1nc(Nc2cc3cccc(Cl)c3cn2)cnc1C#N  thermal shift delta Tm                  4.18
31       CC(C)(C)c1ccc(S(=O)(=O)/C=C/C#N)cc1  thermal shift delta Tm                  0.36
32           Nc1ncnc2n[nH]c(Nc3ccc(F)cc3)c12  thermal shift delta Tm                   1.2
33  CCC[C@H](NC(=O)/C(C#N)=C/c1cccc(Br)n1)c1ccccc1 [Degrasyn (WP1130)]  thermal shift delta Tm                 -0.09
34  CCC(=O)Nc1cccc(Oc2nc(Nc3ccc(N4CCN(C)CC4)cc3OC)ncc2Cl)c1  thermal shift delta Tm                  0.98
35  Cc1nc(NC(=O)N2CCC[C@H]2C(N)=O)sc1-c1ccnc(C(C)(C)C(F)(F)F)c1 [Alpelisib (BYL719)]  thermal shift delta Tm                  0.54
